Source listed as patent US20230407373A1.

Tested on: SARS-CoV-2 gRNA
Format: binding
RECORDED_CONDITIONS: […]; LC-MS/MS; Probe I sample (first 199 lines of Table 2)
MEASURED_QUANTITY: target (unweighted spectral count of the protein in the RNP capture)

MOLECULE	EXPERIMENTAL_VALUE
PPP1CB (protein, UniProt P62140 2-327, looked up) Serine/threonine-protein …: ADGELNVDSLITRLLEVRGCRPGKIVQMTEAEVRGLCIKSREIFLSQPILLELEAPLKICGDIHGQYTDLLRLFEYGGFPPEANYLFLGDYVDRGKQSLETICLLLAYKIKYPENFFLLRGNHECASINRIYGFYDECKRRFNIKLWKTFTDCFNCLPIAAIVDEKIFCCHGGLSPDLQSMEQIRRIMRPTDVPDTGLLCDLLWSDPDKDVQGWGENDRGVSFTFGADVVSKFLNRHDLDLICRAHQVVEDGYEFFAKRQLVTLFSAPNYCGEFDNAGGMMSVDETLMCSFQILKPSEKKAKYQYGGLNSGRPVTPPRTANPPKKR	17

Please examine the following record next.
Req: For RBM3: host protein, UniProt P98179 (protein, UniProt P98179 1-157, looked up) RNA-binding protein 3: MSSEEGKLFVGGLNFNTDEQALEDHFSSFGPISEVVVVKDRETQRSRGFGFITFTNPEHASVAMRAMNGESLDGRQIRVDHAGKSARGTRGGGFGAHGRGRSYSRGGGDQGYGSGRYYDSRPGGYGYGYGRSRDYNGRNQGGYDRYSGGNYRDNYDN , what is its reported target (unweighted spectral count of the protein in the RNP capture)?
Resp: 15
